Target: cell surface-expressed H3N2 WN/05 HA trimer (influenza A virus A/Wisconsin/67/2005 (H3N2))
Test: flow cytometry, HA-expressing 293T
RESULT_TYPE: max. MFI (MFI)
Numbers only, in MFI.

BINDER	RESULT_TYPE	QUANTITY_UNIT	OBS_VALUE
P03 (antibody, V domains shown) VH: EVQLVESGGGLVQPGGSLRLSCAASGFTIDSFGIHWVRQAPGKGLEWVAFIGPFGGSTFYADSVKGRFTISADTSKNTAYLQMNSLRAEDTAVYYCARFDSNSYSYHGIMDYWGQGTLVTVSS VL: DIQMTQSPSSLSASVGDRVTITCRASQDVWGYVAWYQQKPGKAPKLLISWSGSLYSGVPSRFSGSGSGTDFTLTISSLQPEDFATYYCQQYYNWPVTFGQGTKVEIKR	max. MFI	MFI	147

Give measured max. MFI for every item shown.
1. P47 (antibody, V domains shown) VH: EVQLVESGGGLVQPGGSLRLSCAASGFTIGNSGIHWVRQAPGKGLEWVASIWPSGGSTYYADSVKGRFTISADTSKNTAYLQMNSLRAEDTAVYYCARFGHIDGDIMDYWGQGTLVTVSS VL: DIQMTQSPSSLSASVGDRVTITCRASQDVYYYVAWYQQKPGKAPKLLISGSSYLYSGVPSRFSGSGSGTDFTLTISSLQPEDFATYYCQQYYNWPLTFGQGTKVEIKR
2. P48 (antibody, V domains shown) VH: EVQLVESGGGLVQPGGSLRLSCAASGFTINSWGIHWVRQAPGKGLEWVAGIGPSWGYTSYADSVKGRFTISADTSKNTAYLQMNSLRAEDTAVYYCARFGDGDFDLMDYWGQGTLVTVSS VL: DIQMTQSPSSLSASVGDRVTITCRASQDVWSYVAWYQQKPGKAPKLLISYTSYLYSGVPSRFSGSGSGTDFTLTISSLQPEDFATYYCQQYFNWPITFGQGTKVEIKR

1: 175; 2: 258
